Provenance of the data: paper PMC7529893

Target: T1, GST-MAGE-A11 MHD (human MAGE-A11 MHD amino acid 218-429) (human, UniProt P43364 218-429)
T1 chain: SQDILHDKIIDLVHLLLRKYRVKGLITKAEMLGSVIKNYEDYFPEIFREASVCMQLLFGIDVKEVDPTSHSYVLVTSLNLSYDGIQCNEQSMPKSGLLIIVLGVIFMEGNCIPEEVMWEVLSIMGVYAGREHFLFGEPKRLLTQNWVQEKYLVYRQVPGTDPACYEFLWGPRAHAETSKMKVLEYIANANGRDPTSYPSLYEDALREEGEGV
Experiment: FRET
observedProperty: IC50 (nM)
Answers are plain numbers, in nM.

Kindly indicate its recorded IC50. Item: FLVVVHQIRQLFQ (PCF11 degron, human; position +1 is F682 and position +12 is F693; also called model 13 amino acid PCF11 peptide degron; natural PCF11 degron peptide; source: synthetic peptide) [PCF11 peptide (FLVVVHQIRQLFQ) containing phenylalanine at position 12]
60.4
